Assay target: hTRPV3 (Homo sapiens)
Construct: expressed in transfected cells; host or cells: HEK-293
Protocol: Whole cell patch clamp inhibition rate test on HEK-293 cells instantaneously expressing TRPV3
Type: cell-based
Condition details: HEK293; hTRPV3, single concentration 0.3 μM
Examples of compounds with documented inhibition at 0.3 µM follow.

{"Compound": "CC(C)c1ccccc1-c1ccc2c(c1)C(O)CC21CCN(C(=O)c2cc[nH]n2)C1 (centres unmarked)", "inhibition at 0.3 µM": "50 to 70%"}
{"Compound": "[2H]C1(O)CC2(CN(C(=O)c3ccc(F)cn3)C([2H])([2H])C2)c2ccc(-c3ccccc3C3CC3)cc21 (centres unmarked)", "inhibition at 0.3 µM": "70 to 100%"}
{"Compound": "O=C(c1cccc(C2CC2)n1)N1CC[C@@]2(C[C@@H](O)c3cc(-c4ccccc4C4CC4)ccc32)C1", "inhibition at 0.3 µM": "70 to 100%"}
{"Compound": "CC(C)(C#N)c1ccccc1-c1ccc2c(c1)C(O)CC21CCN(C(=O)c2ccc(F)cn2)C1 (centres unmarked)", "inhibition at 0.3 µM": "50 to 70%"}
{"Compound": "CC(C)c1ccccc1-c1ccc2c(c1)CCC21CCN(C(=O)c2ccc(F)cn2)C1 (centres unmarked)", "inhibition at 0.3 µM": "< 25%"}
{"Compound": "O=C(c1ccc(F)cn1)N1CCC2(C1)OB(O)c1cc(-c3ccccc3C3CC3)ccc12 (centres unmarked)", "inhibition at 0.3 µM": "25 to 50%"}

CC(C)c1ccccc1Oc1ccc2c(c1)C(O)CC21CCN(C(=O)c2ccc(F)cn2)C1 (centres unmarked) has a reported inhibition at 0.3 µM of 70 to 100%

Entry under test: O=C(c1ccc(F)cn1)N1CCC2(CC(O)c3cc(-c4ccccc4)ccc32)C1 (centres unmarked) . Its inhibition at 0.3 µM was 25 to 50%

----------
Protocol: Pharmacokinetic experiments in male SD rats
Format: in vivo, rat
Condition details: male, SD, rat, plasma, intravenous, 2 mg/kg
Observation type: C0 (ng/mL)
Use ng/mL as the unit, but write only the number.

Entry O=C(c1ccc(F)cn1)N1CCC2(CC(O)c3cc(-c4ccccc4C4CC4)ccc32)C1 (stereo not shown) — recorded C0 = 4060

----------
Protocol: Pharmacokinetic experiments in male SD rats
Format: in vivo, rat
Condition details: male, SD, rat, plasma, po, gavage, 10 mg/kg
Observation type: Tmax (h)
Give your result in h as a bare value.

Lab note: measured Tmax of O=C(c1ccc(F)cn1)N1CCC2(CC(O)c3cc(-c4ccccc4C4CC4)ccc32)C1 (stereo not shown) [Example 15] was 1.33

----------
Assay target: hTRPV3 (Homo sapiens, UniProt Q8NET8)
Construct: expressed in transfected cells; host or cells: HEK-293
Protocol: Whole cell patch clamp inhibition rate test on HEK-293 cells instantaneously expressing TRPV3
Format: cell-based
Condition details: HEK293; hTRPV3, single concentration 0.3 μM
Observation type: inhibition at 0.3 µM

Worked examples follow.
{"Compound": "OC1CC2(CCN(c3cnc4cc(Cl)ccn34)C2)c2ccc(-c3ccccc3C3CC3)cc21 (stereo not shown) [Example 152]", "Result value": "70 to 100%"}
{"Compound": "O=C(c1csc(Cl)n1)N1CC[C@]2(C[C@H](O)c3cc(-c4ccccc4C4CC4)ccc32)C1 [Example 32]", "Result value": "< 25%"}
{"Compound": "CC(C)c1ccccc1-c1ccc2c(c1)[C@H](O)C[C@@]21CCN(C(=O)c2cccc(C3CC3)n2)C1 [Example 41]", "Result value": "70 to 100%"}

The compound CC(C)c1ccccc1-c1ccc2c(c1)[C@@H](O)C[C@]21CCN(C(=O)c2csc(Cl)n2)C1 [Example 36] showed inhibition at 0.3 µM equal to < 25%

Entry CC(C)c1ccccc1S(=O)(=O)c1ccc2c(c1)C(O)CC21CCN(C(=O)c2ccc(F)cn2)C1 (stereo not shown) [Example 108] , inhibition at 0.3 µM reported as < 25%

Lab note: measured inhibition at 0.3 µM of COc1cnc(C(=O)N2CCC3(CC(O)c4cc(-c5ccccc5C(C)C)ccc43)C2)cn1 (stereo not shown) [Example 63] was 70 to 100%

Form: compound = CC(C)c1ccccc1-c1ccc2c(c1)C(C(=O)O)CC21CCN(C(=O)c2ccc(F)cn2)C1 (stereo not shown) [Example 129] ; inhibition at 0.3 µM = < 25%

----------
Assay target: hTRPV3 (Homo sapiens)
Construct: expressed in transfected cells; host or cells: HEK-293
Sequence (Q8NET8 1-790): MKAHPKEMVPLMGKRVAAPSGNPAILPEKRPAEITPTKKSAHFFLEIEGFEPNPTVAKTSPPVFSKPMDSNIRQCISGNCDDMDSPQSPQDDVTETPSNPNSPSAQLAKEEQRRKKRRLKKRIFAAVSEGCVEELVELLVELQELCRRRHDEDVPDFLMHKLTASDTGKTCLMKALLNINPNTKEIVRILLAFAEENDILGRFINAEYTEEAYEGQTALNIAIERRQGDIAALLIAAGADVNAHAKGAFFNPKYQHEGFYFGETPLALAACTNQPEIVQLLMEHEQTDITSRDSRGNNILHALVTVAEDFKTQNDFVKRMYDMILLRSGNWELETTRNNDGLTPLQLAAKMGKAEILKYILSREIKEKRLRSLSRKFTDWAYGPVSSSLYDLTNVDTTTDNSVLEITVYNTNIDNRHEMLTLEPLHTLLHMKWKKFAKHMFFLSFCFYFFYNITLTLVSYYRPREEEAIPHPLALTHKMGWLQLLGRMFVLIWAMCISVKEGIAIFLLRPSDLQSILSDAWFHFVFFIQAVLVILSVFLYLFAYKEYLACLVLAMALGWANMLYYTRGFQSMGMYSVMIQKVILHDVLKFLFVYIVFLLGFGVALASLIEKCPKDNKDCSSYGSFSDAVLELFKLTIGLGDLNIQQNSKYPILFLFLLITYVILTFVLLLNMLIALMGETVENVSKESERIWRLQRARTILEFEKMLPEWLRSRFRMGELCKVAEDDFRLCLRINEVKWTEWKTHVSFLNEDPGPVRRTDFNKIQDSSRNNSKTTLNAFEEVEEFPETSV
Protocol: Whole cell patch clamp inhibition rate test on HEK-293 cells instantaneously expressing TRPV3
Assay type: cell-based
Condition details: HEK293; hTRPV3, single concentration 0.3 μM
Observation type: inhibition at 0.3 µM

Illustrative cases are given below, each with its answer.
{"Molecule": "CC(C)c1ccccc1-c1ccc2c(c1)C(O)CC21CCN(C(=O)c2ncccn2)C1 (stereo not shown)", "inhibition at 0.3 µM": "25 to 50%"}
{"Molecule": "COc1ncnc(OC)c1C(=O)N1CCC2(CC(O)c3cc(-c4ccccc4C4CC4)ccc32)C1 (stereo not shown)", "inhibition at 0.3 µM": "< 25%"}
{"Molecule": "O=C(c1ncccc1Cl)N1CCC2(CC(O)c3cc(-c4ccccc4C4CC4)ccc32)C1 (stereo not shown)", "inhibition at 0.3 µM": "50 to 70%"}
{"Molecule": "O=C(c1cccc(C2CC2)n1)N1CCC2(CC(O)c3cc(-c4ccccc4C4CC4)ccc32)C1 (stereo not shown)", "inhibition at 0.3 µM": "70 to 100%"}
{"Molecule": "CNc1cncc(C(=O)N2CCC3(CC(O)c4cc(-c5ccccc5C5CC5)ccc43)C2)n1 (stereo not shown)", "inhibition at 0.3 µM": "70 to 100%"}
{"Molecule": "O=C(c1ccc(F)cn1)N1CC[C@]2(C[C@@H](O)c3cc(-c4ccccc4C4CC4)ccc32)C1", "inhibition at 0.3 µM": "< 25%"}

Bench note, hTRPV3 (Homo sapiens): entry O=C1C[C@@]2(CCN(C(=O)c3ccc(F)cn3)C2)c2ccc(-c3ccccc3C3CC3)cc21 , its inhibition at 0.3 µM = < 25%

Summary line: O=C(c1ccc(F)cn1)N1CCC2(CC(O)c3cc(-c4cccc5c4CCC5)ccc32)C1 (stereo not shown) , hTRPV3 (Homo sapiens), reported inhibition at 0.3 µM = 50 to 70%

The reported inhibition at 0.3 µM value, hTRPV3 (Homo sapiens), for CC(C)c1ccccc1-c1ccc2c(c1)C(O)CC21CCN(C(=O)C2CCN(C)CC2)C1 (stereo not shown) reads < 25%

Measured inhibition at 0.3 µM for this entry [2H]C1(O)CC2(CCN(C(=O)c3ccc(F)cn3)C2)c2ccc(-c3ccccc3C3CC3)cc21 (stereo not shown) on hTRPV3 (Homo sapiens): 70 to 100%

Observed inhibition at 0.3 µM, hTRPV3 (Homo sapiens), O=C(c1ccc(F)cn1)N1CCC2(CC(O)c3cc(-c4cc(F)ccc4C4CC4)ccc32)C1 (stereo not shown) : 70 to 100%

----------
Protocol: Pharmacokinetic experiments in male SD rats
Format: in vivo, rat
Condition details: male, SD, rat, plasma, po, gavage, 10 mg/kg
Observation type: AUC(0-inf) (ng·h/mL)
Your answer should be a plain number; it is taken to be in ng·h/mL.

Data point: O=C(c1ccc(F)cn1)N1CCC2(CC(O)c3cc(-c4ccccc4C4CC4)ccc32)C1 (stereo not shown) [Example 15] ; AUC(0-inf) = 42200
